Listing of recorded MIC by entry.
System: Mycobacterium tuberculosis
experiment.summary: Antibacterial activity against Mycobacterium tuberculosis H37Rv assessed as reduction in bacterial growth by broth microdilution method
Type: functional

compound	MIC / µg/mL
NNC(=O)c1ccncc1 [ISONIAZID]	8
COc1cccc(C2C3=C(CCCC3=O)OC3=C2C(=O)CCC3)c1	8
CC[C@@H](CO)NCCN[C@@H](CC)CO [ETHAMBUTOL]	8
CC1(C)CC(=O)C2=C(C1)OC1=C(C(=O)CC(C)(C)C1)C2c1ccccc1	8
CO[C@H]1/C=C/O[C@@]2(C)Oc3c(C)c(O)c4c(O)c(c(/C=N/N5CCN(C)CC5)c(O)c4c3C2=O)NC(=O)/C(C)=C\C=C\[C@H](C)[C@H](O)[C@@H](C)[C@@H](O)[C@@H](C)[C@H](OC(C)=O)[C@@H]1C [RIFAMPIN]	8
